Below, each of the compounds is paired with its reported Plasma stability (h) dog value.
# ASSAY REMARKS: BTK FAC plasma stability assay, dog plasma
# Type: in vitro ADME

Sample records with Plasma stability (h) dog:
[[record]]
compound = "CCCCCCCCCCCN(C(=O)CCCCCCCCCC(=O)O)C(CCC(=O)NCCOCCOCCOCCOCCOCCOCCOCCOCCOCCOCCOCCOCCC(=O)NC(C)(C)CC(=O)OC(C)(C)c1ccc(C(=O)Nc2cc(F)cc(-c3ncnc4[nH]c(-c5ccc(CCN6CCC7(CC6)CCN(C(=O)c6ccc(OC)c(N8CCC(=O)NC8=O)c6)CC7)cc5)cc34)c2C)c(F)c1)C(=O)O (stereo not drawn)"
reported_endpoint = "Plasma stability (h) dog"
observed_result = ">48 h"

[[record]]
compound = "COc1ccc(C(=O)N2CCC3(CCN(CCc4ccc(-c5cc6c(-c7cc(F)cc(NC(=O)c8ccc(C(C)(C)O)cc8F)c7C)ncnc6[nH]5)cc4)CC3)CC2)cc1N1CCC(=O)NC1=O"
reported_endpoint = "Plasma stability (h) dog"
observed_result = ">48 h"


// lookup Plasma stability (h) dog for CCCCCCCCCCCN(C(=O)CCCCCCCCCC(=O)O)C(CCC(=O)NCCOCCOCCOCCOCCOCCOCCOCCOCCOCCOCCOCCOCCC(=O)NCc1ccc(C(=O)OC(C)(C)c2ccc(C(=O)Nc3cc(F)cc(-c4ncnc5[nH]c(-c6ccc(CCN7CCC8(CC7)CCN(C(=O)c7ccc(OC)c(N9CCC(=O)NC9=O)c7)CC8)cc6)cc45)c3C)c(F)c2)cn1)C(=O)O (stereo not drawn)
>48 h
